assay: NCI Yeast Anticancer Drug Screen. Data for the bub3 strain (AID 167); details: S. cerevisiae bub3 mutant strain, active compounds read high; at 50.0 µM unless noted
About 79,000 compounds went through this panel and 15% of them were active in at least one assay; those are over-represented in the sample as a whole.
parameter_measured: growth inhibition (%)
The answer is to be given in %; state only the numeric part.

# input molecule: O=S(=O)(O)C(I)S(=O)(=O)O ; wanted: its growth inhibition
-10.8

Need growth inhibition of O=S(=O)(c1ccc(Cl)cc1)S(=O)(=O)c1ccc(Cl)cc1 , thanks.
4.5

Returns the measured growth inhibition for the input molecule. Input: CC(C)N1C(=O)c2cccc(Cl)c2C1=O (tested in a mixture with another compound)
-7.85

# lookup: growth inhibition of C/C(=N\NC(=S)Nc1nccs1)c1ccccn1
96

Item under review: CC1=NN(c2ccccc2)C(=O)C1O (stereo not drawn) . Reported growth inhibition?
-10.6

Name the recorded growth inhibition for CCCCN(CCCC)CC(C(=O)Nc1ccc([N+](=O)[O-])cc1[N+](=O)[O-])/C(C)=N\NC(=O)c1ccncc1 (stereo not drawn) .
2.55

// returns reported growth inhibition for input Cc1ccc2c(N=Nc3ccc(C(=N)N)cc3)ccc(O)c2n1
99.2

Fill in the blank: the reported growth inhibition of CCS(=O)(=O)c1ccc(NC(=O)OC2CCC3(C)C(=CCC4C3CCC3(C)C(C(C)CCCC(C)C)CCC43)C2)cc1 (stereo not drawn) is ____.
-3.25

Please look up its growth inhibition: CC(=O)c1cc(Cc2cc(C)cc(C)c2O)c(O)c(Cc2cc(C)cc(C)c2O)c1
17.4

I am curious: what growth inhibition value has been reported for CCCCCCCC1C(=O)OC2CC3C(C)=CC(=O)C(O)C3(C)C3C4(O)OCC23C1C(C)C4O (stereo not drawn) ?
90.2

# input molecule: Nc1ccccc1SC1CC(=O)N(c2ccc3c(c2)OCO3)C1=O (stereo not drawn) ; wanted: its growth inhibition
8.35

If you can, please state the reported growth inhibition value of O=C(O)CC(O)(c1ccccc1)c1ccccc1 .
1.4

State the recorded growth inhibition for this entry: O=C(CCCC(=O)N/N=C/c1ccccc1O)N/N=C\c1ccccc1O
-3.5
